System: Staphylococcus aureus
assay-name: Antibacterial activity against methicillin-resistant Staphylococcus aureus ATCC 33591 measured after 12 to 18 hrs
Type: functional
metric: MIC (µg/mL)
Record the value in µg/mL, omitting the unit from your answer.

Quick one: MIC for CC[n+]1nn(-c2ccc(Cl)cc2)c2c1C(=O)c1ccccc1C2=O.O=S(=O)([O-])C(F)(F)F ?
1

* * *

assay-name: Selectivity index, ratio of IC50 for human BEAS2B cells to IC50 for human A549 cells
condition-notes: BEAS2B cells versus A549 cells, read-out: Ratio IC50
Here, each record is paired with measured selectivity ratio data.
Just the number, please, no unit attached.

For the compound CCCCCCCCCC[n+]1nn(-c2ccc([N+](=O)[O-])cc2)c2c1C(=O)c1ccccc1C2=O.O=S(=O)([O-])C(F)(F)F , what selectivity ratio is on record?
1.05

Which measured selectivity ratio value corresponds to C[n+]1nn(-c2ccc(F)cc2)c2c1C(=O)c1ccccc1C2=O.O=S(=O)([O-])C(F)(F)F ?
6.44

Suppose we examine the compound CC[n+]1nn(-c2ccc(Cl)cc2)c2c1C(=O)c1ccccc1C2=O.O=S(=O)([O-])C(F)(F)F ; what selectivity ratio value has been reported?
4.96

Please report the recorded selectivity ratio for CCCCCC[n+]1nn(-c2ccc([N+](=O)[O-])cc2)c2c1C(=O)c1ccccc1C2=O.O=S(=O)([O-])C(F)(F)F .
0.79

* * *

# selectivity ratio per entry
assay-name: Selectivity index, ratio of IC50 for human CCD-841-CoN cells to IC50 for human COLO205 cells
condition-notes: CCD-841-CoN cells versus COLO205 cells, read-out: Ratio IC50
Simply state the number, no unit and no words.

Fill in the blank: the reported selectivity ratio of CC[n+]1nn(-c2ccc([N+](=O)[O-])cc2)c2c1C(=O)c1ccccc1C2=O.O=S(=O)([O-])C(F)(F)F is ____.
6.64

What value of selectivity ratio has been reported for the following compound? CCCCCC[n+]1nn(-c2ccc([N+](=O)[O-])cc2)c2c1C(=O)c1ccccc1C2=O.O=S(=O)([O-])C(F)(F)F
1.89

I would be grateful if you could share the reported selectivity ratio for COc1ccc(-n2n[n+](C)c3c2C(=O)c2ccccc2C3=O)cc1.O=S(=O)([O-])C(F)(F)F .
8.41

// selectivity ratio lookup, key: CCCC[n+]1nn(-c2ccc([N+](=O)[O-])cc2)c2c1C(=O)c1ccccc1C2=O.O=S(=O)([O-])C(F)(F)F
0.99

I would be grateful if you could share the reported selectivity ratio for C[n+]1nn(-c2ccc(C#N)cc2)c2c1C(=O)c1ccccc1C2=O.O=S(=O)([O-])C(F)(F)F .
5.52

What value of selectivity ratio has been reported for the following compound? C[n+]1nn(-c2ccc([N+](=O)[O-])cc2)c2c1C(=O)c1ccccc1C2=O.O=S(=O)([O-])C(F)(F)F
12

Consider the compound shown here: CC[n+]1nn(-c2ccc(Cl)cc2)c2c1C(=O)c1ccccc1C2=O.O=S(=O)([O-])C(F)(F)F What is its recorded selectivity ratio?
8.53

Look up selectivity ratio: C[n+]1nn(-c2ccc(F)cc2)c2c1C(=O)c1ccccc1C2=O.O=S(=O)([O-])C(F)(F)F
2.85

# input compound: CC[n+]1nn(-c2ccc(OC)cc2)c2c1C(=O)c1ccccc1C2=O.O=S(=O)([O-])C(F)(F)F ; wanted: its selectivity ratio
9.57

Look up selectivity ratio: CCCCCCCC[n+]1nn(-c2ccc([N+](=O)[O-])cc2)c2c1C(=O)c1ccccc1C2=O.O=S(=O)([O-])C(F)(F)F
3.63

For the compound shown here, CCCCCCCCCC[n+]1nn(-c2ccc([N+](=O)[O-])cc2)c2c1C(=O)c1ccccc1C2=O.O=S(=O)([O-])C(F)(F)F , give the reported selectivity ratio.
4.2
